Data credit: paper PMC5424463

target: ALKBH5 (Homo sapiens); construct: pNIC28-Bsa4 ALKBH5 (encompassing residues 66-292); made in house; host or cells: E. coli BL21 (DE3) Rosetta T1R; experiment: MALDI-based inhibition assay for ALKBH5, m6A-ssDNA substrate; format: biochemical; conditions: IC50 (ALKBH5)
readout label: IC50 (µM)
Enter your answer as a number in µM; do not include the unit.

Incoming: For the compound shown here, O=C(O)CNC(=O)C(=O)O [NOG, N-oxalylglycine, reference compound] , give the reported IC50.
Outgoing: 145

====

target: ALKBH5 (Homo sapiens, UniProt Q6P6C2); construct: pNIC28-Bsa4 ALKBH5 (encompassing residues 66-292); made in house; host or cells: E. coli BL21 (DE3) Rosetta T1R; experiment: HPLC-based inhibition assay for ALKBH5, m6A-ssRNA substrate; assay type: biochemical; settings: 5-mer m6A-ssRNA substrate
Sequence (Q6P6C2 66-292): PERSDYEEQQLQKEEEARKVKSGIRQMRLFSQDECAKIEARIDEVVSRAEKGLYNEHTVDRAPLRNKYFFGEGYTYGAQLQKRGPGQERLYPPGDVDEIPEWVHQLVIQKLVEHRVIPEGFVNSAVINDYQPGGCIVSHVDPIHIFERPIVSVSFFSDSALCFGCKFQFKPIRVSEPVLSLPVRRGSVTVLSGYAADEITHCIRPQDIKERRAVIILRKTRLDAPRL
readout label: IC50 (µM)
Enter your answer as a number in µM; do not include the unit.

Incoming: For the molecule shown here, O=C(O)/C=C/C(=O)NNC(=O)c1cnccc1Cc1ccccc1 , give the reported IC50.
Outgoing: 96.5

====

The entries below are paired with their reported ΔTm at 100 µM.
target: FTO (Homo sapiens, UniProt Q9C0B1); construct: The human full length FTO construct used in this study; made in house; host or cells: E. coli BL21 (DE3) Rosetta T1R; assay: Differential scanning fluorimetry (DSF)-based binding assay, FTO; settings: 100 μM compound, 2 μM protein, 50 μM MnCl2, read-out: Tm shift (FTO)
Sequence (Q9C0B1 whole entry): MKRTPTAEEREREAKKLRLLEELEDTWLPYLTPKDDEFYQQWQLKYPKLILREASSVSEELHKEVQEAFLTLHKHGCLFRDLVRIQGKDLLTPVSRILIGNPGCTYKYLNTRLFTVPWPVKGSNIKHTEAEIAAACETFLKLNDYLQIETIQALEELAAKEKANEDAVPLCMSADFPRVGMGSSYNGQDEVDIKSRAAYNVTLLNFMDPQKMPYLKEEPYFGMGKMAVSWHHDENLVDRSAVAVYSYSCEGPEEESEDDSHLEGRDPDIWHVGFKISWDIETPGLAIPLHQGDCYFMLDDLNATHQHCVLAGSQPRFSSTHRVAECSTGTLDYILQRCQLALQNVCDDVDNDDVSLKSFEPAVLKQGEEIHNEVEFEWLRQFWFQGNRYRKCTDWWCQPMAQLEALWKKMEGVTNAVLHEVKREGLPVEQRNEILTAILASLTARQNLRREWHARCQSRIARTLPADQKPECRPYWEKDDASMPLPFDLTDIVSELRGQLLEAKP
Enter your answer as a number in °C; do not include the unit.

• O=C(O)/C=C/C(=O)NNC(=O)c1ccccn1 = 2.7
• Cc1cn([C@H]2C[C@H](O)[C@@H](CO)O2)c(=O)n(C)c1=O = 12.1

Incoming: For the compound shown here, CNc1ncnc2c1ncn2[C@@H]1O[C@H](CO)[C@@H](O)[C@H]1O , give the reported ΔTm at 100 µM.
Outgoing: 2.4

Incoming: For the compound shown here, O=C(O)C=CC(=O)NNC(=O)c1cc(Cc2ccccc2)ccn1 , give the reported ΔTm at 100 µM.
Outgoing: 3

====

The entries below are paired with their reported IC50.
biological target: ALKBH5 (Homo sapiens, UniProt Q6P6C2); construct: pNIC28-Bsa4 ALKBH5 (encompassing residues 66-292); made in house; host or cells: E. coli BL21 (DE3) Rosetta T1R; experiment: MALDI-based inhibition assay for ALKBH5, m6A-ssDNA substrate; type: biochemical; conditions: read-out: IC50 (ALKBH5)
Enter your answer as a number in µM; do not include the unit.

Worked examples follow.
* O=C(O)/C=C/C(=O)NNC(=O)c1cnccc1Cc1ccccc1 | 108
* O=C(O)C=CC(=O)NNC(=O)c1cc(Cc2ccccc2)ccn1 | 105

Could you now consider this next molecule?
Incoming: For the molecule shown here, O=C(O)/C=C/C(=O)NNC(=O)c1ccccn1 , give the reported IC50.
Outgoing: 157

====

Molecular target: AlkB (Escherichia coli)
Construct: made in house; host or cells: E. coli BL21 (DE3) Rosetta T1R
Test: Differential scanning fluorimetry (DSF)-based binding assay, AlkB
Details: 100 μM compound, 2 μM protein, 50 μM MnCl2, read-out: Tm shift (AlkB)
Description: Superdex-200 column (GE Healthcare) pre-equilibrated with 20 mM HEPES, pH 7.5, 300 mM NaCl, 10% (v/v) glycerol, 0.5 mM TCEP. […] Differential scanning fluorimetry (DSF)-based binding assay […] mix. Fluorescence readings were taken every 1°C in the range 25-95°C, with the temperature increased linearly by 1°C min -1. […] The inflection point, representing Tm, was calculated by fitting the Boltzmann equation to the sigmoidal curves obtained; data were processed using GraphPad Prism 6.0™. […]
readout label: ΔTm at 100 µM (°C)
Enter your answer as a number in °C; do not include the unit.

Worked examples follow.
- O=C(O)/C=C/C(=O)NNC(=O)c1ccccn1: 1.5
- O=C(O)/C=C/C(=O)NNC(=O)c1cccnc1: 1.8
- Cc1cn([C@H]2C[C@H](O)[C@@H](CO)O2)c(=O)n(C)c1=O: 1.4

Incoming: For the compound shown here, O=C(O)C=CC(=O)NNC(=O)c1cc(Cc2ccccc2)ccn1 , give the reported ΔTm at 100 µM.
Outgoing: 3.2

Incoming: For the compound shown here, O=C(O)/C=C/C(=O)NNC(=O)c1cnccc1Cc1ccccc1 , give the reported ΔTm at 100 µM.
Outgoing: 4.5

Incoming: For the compound shown here, CNc1ncnc2c1ncn2[C@@H]1O[C@H](CO)[C@@H](O)[C@H]1O , give the reported ΔTm at 100 µM.
Outgoing: 2.6

Incoming: For the compound shown here, O=C(O)CNC(=O)C(=O)O [NOG, N-oxalylglycine, reference compound] , give the reported ΔTm at 100 µM.
Outgoing: 2.7

====

target: ALKBH5 (Homo sapiens, UniProt Q6P6C2); construct: pNIC28-Bsa4 ALKBH5 (encompassing residues 66-292); made in house; host or cells: E. coli BL21 (DE3) Rosetta T1R; experiment: Differential scanning fluorimetry (DSF)-based binding assay, ALKBH5; conditions: 100 μM compound, 2 μM protein, 50 μM MnCl2, read-out: Tm shift (ALKBH5)
The entries below are paired with their reported ΔTm at 100 µM.
The answer consists of two parts: a number and, after it, its unit.

Worked examples follow.
- O=C(O)/C=C/C(=O)NNC(=O)c1cccnc1: 2.1 °C
- O=C(O)C=CC(=O)NNC(=O)c1cc(Cc2ccccc2)ccn1: 2.8 °C
- O=C(O)/C=C/C(=O)NNC(=O)c1ccccn1: 2.1 °C
- Cc1cn([C@H]2C[C@H](O)[C@@H](CO)O2)c(=O)n(C)c1=O: 1.1 °C
- CNc1ncnc2c1ncn2[C@@H]1O[C@H](CO)[C@@H](O)[C@H]1O: 9.8 °C

Could you now consider this next molecule?
Incoming: Tell me reported ΔTm at 100 µM for O=C(O)/C=C/C(=O)NNC(=O)c1cnccc1Cc1ccccc1 , tested with ALKBH5 (Homo sapiens, UniProt Q6P6C2).
Outgoing: 2.7 °C

====

biological target: ALKBH3 (Homo sapiens, UniProt Q96Q83); construct: Human ALKBH3 (encompassing residues 1- 286); purchased ProSpec-Tany Technogene Ltd, Israel; assay: Differential scanning fluorimetry (DSF)-based binding assay, ALKBH3; conditions: DSF, 100 μM compound, 2 μM protein, 50 μM MnCl2; read-out: Tm shift (ALKBH3)
Sequence (Q96Q83 whole entry, the tested form may be a part): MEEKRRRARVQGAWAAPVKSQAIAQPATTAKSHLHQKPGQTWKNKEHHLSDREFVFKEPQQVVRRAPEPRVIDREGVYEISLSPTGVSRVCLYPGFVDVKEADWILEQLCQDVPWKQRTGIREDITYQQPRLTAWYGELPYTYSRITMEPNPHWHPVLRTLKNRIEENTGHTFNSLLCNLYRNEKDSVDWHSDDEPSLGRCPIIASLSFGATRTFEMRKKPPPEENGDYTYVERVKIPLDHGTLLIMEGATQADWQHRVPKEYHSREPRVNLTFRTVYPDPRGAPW
Quick rule for you: ΔTm at 100 µM at 2 °C or higher means Y, lower means N.

Some solved entries appear below for comparison.
- O=C(O)C=CC(=O)NNC(=O)c1cc(Cc2ccccc2)ccn1: Y
- O=C(O)/C=C/C(=O)NNC(=O)c1cnccc1Cc1ccccc1: Y
- CNc1ncnc2c1ncn2[C@@H]1O[C@H](CO)[C@@H](O)[C@H]1O: Y
- O=C(O)/C=C/C(=O)NNC(=O)c1cccnc1: Y

Turning now to a further record.
Incoming: Is ΔTm at 100 µM for Cc1cn([C@H]2C[C@H](O)[C@@H](CO)O2)c(=O)n(C)c1=O at or above 2 °C?
Outgoing: N

====

target: AlkB (Escherichia coli, UniProt P05050); construct: made in house; host or cells: E. coli BL21 (DE3) Rosetta T1R; assay: Differential scanning fluorimetry (DSF)-based binding assay, AlkB; details: 100 μM compound, 2 μM protein, 50 μM MnCl2
Sequence (P05050 12-216): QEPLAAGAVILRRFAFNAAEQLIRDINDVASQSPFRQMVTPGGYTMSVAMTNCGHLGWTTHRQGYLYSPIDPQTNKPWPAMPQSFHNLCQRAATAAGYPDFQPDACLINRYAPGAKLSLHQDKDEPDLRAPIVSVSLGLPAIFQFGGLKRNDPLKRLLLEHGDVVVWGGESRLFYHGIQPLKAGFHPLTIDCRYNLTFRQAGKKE
The entries below are paired with their reported Tm shift (AlkB).

Worked examples follow.
• ATTGTGG(T)CTGCAGC: unmethylated counterpart of the 15-mer m3T ssDNA = 2.7 °C
• ATTGTGG(m3T)CTGCAGC: 15-mer m3T-containing ssDNA = 3.1 °C
• ATTGTGG(A)CUGCAGC: unmethylated counterpart of the 15-mer m6A ssRNA = 2.4 °C

Could you now consider this next substance?
Incoming: Tell me reported Tm shift (AlkB) for ATTGTGG(m6A)CUGCAGC: 15-mer m6A-containing ssRNA , tested with AlkB (Escherichia coli, UniProt P05050).
Outgoing: 2.7 °C

====

biological target: FTO (Homo sapiens); construct: The human full length FTO construct used in this study; made in house; host or cells: E. coli BL21 (DE3) Rosetta T1R; assay: Differential scanning fluorimetry (DSF)-based binding assay, FTO; conditions: 100 μM compound, 2 μM protein, 50 μM MnCl2
readout label: Tm shift (FTO)

* ATTGTGG(A)CUGCAGC: unmethylated counterpart of the 15-mer m6A ssRNA | 3.4 °C
* ATTGTGG(T)CTGCAGC: unmethylated counterpart of the 15-mer m3T ssDNA | 3.2 °C
* ATTGTGG(m3T)CTGCAGC: 15-mer m3T-containing ssDNA | 3.0 °C

Incoming: Tell me reported Tm shift (FTO) for ATTGTGG(m6A)CUGCAGC: 15-mer m6A-containing ssRNA , tested with FTO (Homo sapiens).
Outgoing: 3.0 °C
